# System: HepG2
# METHOD SUMMARY: Cytotoxicity against human HepG2 cells after 48 hrs by MTT assay
# Assay type: functional, cell-based
# CONDITION PARAMETERS: HepG2, 48 h
pIC50: −log10 of the molar value.
Overview of recorded pIC50 for various compounds

[
  {
    "COMPOUND": "CC(=O)O[C@H]1C(=O)[C@@]2(C)[C@H]([C@H](OC(=O)c3ccccc3)[C@]3(O)C[C@H](OC(=O)[C@H](O)[C@@H](NC(=O)c4ccccc4)c4ccccc4)C(C)=C1C3(C)C)[C@]1(OC(C)=O)CO[C@@H]1C[C@@H]2O",
    "pIC50": 7.35
  },
  {
    "COMPOUND": "[O-][S+](CCC(F)=C(F)F)c1ncc(-c2ccncc2)s1 (stereo unspecified)",
    "pIC50": "< 3.92"
  },
  {
    "COMPOUND": "c1ccc2sc(SSc3nc4ccccc4s3)nc2c1 [BENZOTHIAZYL DISULFIDE]",
    "pIC50": "< 3.92"
  },
  {
    "COMPOUND": "FC(F)=C(F)CCSc1nc2ccccc2o1",
    "pIC50": "< 3.92"
  },
  {
    "COMPOUND": "CC(C)(c1nccs1)C(C#N)C#N",
    "pIC50": "< 3.92"
  },
  {
    "COMPOUND": "O=S(=O)(CCC(F)=C(F)F)c1ncc(-c2ccncc2)s1",
    "pIC50": "< 3.92"
  },
  {
    "COMPOUND": "N#CC(C#N)Cc1nccs1",
    "pIC50": "< 3.92"
  },
  {
    "COMPOUND": "FC(F)=C(F)CCSc1ccccn1",
    "pIC50": "< 3.92"
  },
  {
    "COMPOUND": "FC(F)=C(F)CCSc1nc2ccccc2s1",
    "pIC50": "< 3.92"
  },
  {
    "COMPOUND": "c1ccc2sc(SNC3CCCCC3)nc2c1",
    "pIC50": 4.26
  },
  {
    "COMPOUND": "CC(c1nccs1)C(C#N)C#N (stereo unspecified)",
    "pIC50": "< 3.92"
  }
]
